system: NCI-H460 lung; test: NCI tumour cell line growth inhibition, 48 h
Where a SMILES comes first, the peptide text is derived from it. The star is where a group is joined. Boc = CC(C)(C)OC(=O)*; tBu = CC(C)(C)*

| Compound | TGI |
| --- | --- |
| O=c1[nH]c(=S)[nH]c2c(C3OC(CO)C(O)C3O)nsc12 (stereo unspecified) | > 100 µM |
| O=c1[nH]nc(Cc2ccccc2)n1C1CC1 | > 100 µM |
| Nc1c(C(=O)Nc2ccccn2)sc2nc3c(cc12)CCCCCC3 | 6.62 µM |
| COc1cccc(/C=N/[N-]C(N)=O)c1[O-].[OH3+].[Pd+2] | > 100 µM |
| O=C(O)Cc1ccc(Oc2nc3ccccc3nc2-c2ccccc2)cc1 | > 100 µM |
| O[C@]12c3ccccc3C1CCCCC2N1CCOCC1 (stereo partly specified) | > 100 µM |
| COc1ccc2c(C(=O)c3c(C)n(CCN4CCOCC4)c4ccccc34)cccc2c1 | > 100 µM |
| CCOc1ccc(/C=C2/C(=O)N=C(N)N=C2N)cc1OCC | > 100 µM |
| CC(=O)c1sc2c(c1O)c(=O)n(-c1ccccc1)c(=S)n2-c1ccccc1 | > 100 µM |
| CC(OC(C)(C)C)C(NC(=O)C(N)CCCCNC(=O)OC(C)(C)C)C(=O)NC(Cc1ccccc1)C(=O)O (stereo unspecified) (H-Lys(Boc)-Thr(tBu)-Phe-OH; configuration not given here) | > 100 µM |
| O=C(/C=C/c1cccc(Oc2ccc(Cl)cc2)c1)c1ccccc1 | 208 µM |

---

system: SK-MEL-28 melanoma; experiment: NCI tumour cell line growth inhibition, 48 h
Measured Endpoint: TGI (µM)

| Compound | Comparative Sign | Observed |
| --- | --- | --- |
| COc1ccc(/C=N/n2c(Cc3ccccc3)n[nH]c2=O)cc1 | > | 100 |
| CN(C)c1ccc2c(c1)OC(N)=C(C#N)C2c1ccc2c(c1)CCCN2C (stereo not given) | = | 86.3 |
| CCCCCC(/C=C/[C@@H]1[C@@H](C(O)CCCCCC(=O)OC)C(=O)C[C@H]1O[Si](C)(C)C(C)(C)C)OCOCCOC (stereo not given in full) | = | 33.3 |
| O=S(=O)(c1ccc2ccccc2c1)N1CCN(S(=O)(=O)c2ccc3ccccc3c2)CC1 | > | 100 |
| CC1(CCCCO)C=CC(S(=O)(=O)c2ccccc2)CC1 (stereo not given) | = | 28.5 |
| Nc1c(C(=O)c2ccccc2)nnc2ccccc12 | > | 100 |
| COC(=O)c1ccc2c(c1)C(=O)c1c-2n(CCCCl)c(=O)c2cc(OC)c(OC)cc12 | > | 100 |
| COc1cccc(N2C(=O)C3CC(CC(C)(C)C)c4c([nH]c5ccccc45)C3C2=O)c1 (stereo not given) | > | 10 |
| CCN(CC)Cc1ccc(Nc2c3ccccc3nc3ccccc23)cc1 | = | 4.69 |
| NCC(Cc1ccccc1)P(=O)(O)O (stereo not given) | > | 100 |

---

tested on: LOX IMVI melanoma; test: NCI tumour cell line growth inhibition, 48 h
Where a SMILES comes first, the peptide text is derived from it. The star is where a group is joined. Boc = CC(C)(C)OC(=O)*; tBu = CC(C)(C)*

| Compound | Assay System | TGI |
| --- | --- | --- |
| CSC1(Cc2ccccn2)C(=O)Nc2cccc([N+](=O)[O-])c21 (centres undefined) | LOX IMVI melanoma | > 100 µM |
| O=C(O)Cc1ccc(Oc2nc3ccccc3nc2-c2ccccc2)cc1 | LOX IMVI melanoma | > 100 µM |
| Fc1ccc(C(OCCN2CC3CC2CN3)c2ccc(F)cc2)cc1 (centres undefined) | LOX IMVI melanoma | > 100 µM |
| Cn1cc(NC(=O)c2cc(NC(=O)CCCCCCCC(=O)Nc3cc(C(=O)Nc4cc(C(=O)NCCC(=N)N)n(C)c4)n(C)c3)cn2C)cc1C(=O)NCCC(=N)N | LOX IMVI melanoma | 28.8 µM |
| CC(OC(C)(C)C)C(NC(=O)C(N)CCCCNC(=O)OC(C)(C)C)C(=O)NC(Cc1ccccc1)C(=O)O (centres undefined) (H-Lys(Boc)-Thr(tBu)-Phe-OH; configuration not given here) | LOX IMVI melanoma | > 100 µM |
| CCCCOCCOCCOC1=C(Cl)C(=O)c2c(O)ccc(O)c2C1=O | LOX IMVI melanoma | 1.75 µM |
| c1ccc2c(c1)[O][Sn][O]2 | LOX IMVI melanoma | 112 µg/mL |
| O=C(/C=C/c1cccs1)c1ccc([N+](=O)[O-])cc1 | LOX IMVI melanoma | > 100 µM |
| CCN1C(=O)N2C(OC)c3ccccc3C(Br)C2(OC)C1=O (centres undefined) | LOX IMVI melanoma | > 100 µM |
